# Study system: Aminopeptidase N (Plasmodium falciparum FcB1/Columbia) (UniProt O96935)
# Sequence (whole entry): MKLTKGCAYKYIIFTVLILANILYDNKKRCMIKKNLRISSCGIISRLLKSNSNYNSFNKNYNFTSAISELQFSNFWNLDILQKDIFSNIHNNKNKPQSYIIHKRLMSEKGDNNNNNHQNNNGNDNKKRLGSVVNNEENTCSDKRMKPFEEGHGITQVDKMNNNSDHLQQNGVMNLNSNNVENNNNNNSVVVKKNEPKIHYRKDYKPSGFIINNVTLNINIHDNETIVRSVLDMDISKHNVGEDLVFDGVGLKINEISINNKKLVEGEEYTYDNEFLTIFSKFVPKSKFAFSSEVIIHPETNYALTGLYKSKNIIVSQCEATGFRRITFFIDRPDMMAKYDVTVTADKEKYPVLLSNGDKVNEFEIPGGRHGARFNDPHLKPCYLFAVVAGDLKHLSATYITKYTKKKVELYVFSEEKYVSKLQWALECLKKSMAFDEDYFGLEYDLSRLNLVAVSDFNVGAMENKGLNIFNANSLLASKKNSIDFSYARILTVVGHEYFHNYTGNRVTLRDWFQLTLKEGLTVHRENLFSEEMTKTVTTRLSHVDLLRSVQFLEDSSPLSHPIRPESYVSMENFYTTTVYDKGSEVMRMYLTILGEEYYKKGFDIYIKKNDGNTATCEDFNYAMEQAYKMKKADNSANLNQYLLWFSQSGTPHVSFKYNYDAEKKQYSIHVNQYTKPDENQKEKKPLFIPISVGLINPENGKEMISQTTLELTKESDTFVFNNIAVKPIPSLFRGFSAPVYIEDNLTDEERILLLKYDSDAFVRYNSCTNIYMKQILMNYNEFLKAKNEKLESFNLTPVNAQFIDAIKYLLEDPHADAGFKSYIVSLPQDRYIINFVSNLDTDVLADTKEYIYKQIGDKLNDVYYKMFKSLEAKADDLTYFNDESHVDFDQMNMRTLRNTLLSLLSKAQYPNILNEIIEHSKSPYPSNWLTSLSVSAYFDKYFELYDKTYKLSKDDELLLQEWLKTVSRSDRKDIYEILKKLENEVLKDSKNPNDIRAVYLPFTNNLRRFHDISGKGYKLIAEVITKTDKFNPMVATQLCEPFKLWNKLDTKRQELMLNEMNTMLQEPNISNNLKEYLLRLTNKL
# Experimental protocol: Inhibition of Plasmodium falciparum FcB1 M1 aminopeptidase at 10 uM

>  <Compound>
O=C(NO)C(Cc1ccccc1)C(=O)NCCc1ccccn1 (stereo unspecified)

>  <inhibition [%]>
29

$$$$
>  <Compound>
O=C(NO)C(Cc1cccc(Oc2ccccc2)c1)C(=O)NCc1ccc(Cl)cc1 (stereo unspecified)

>  <inhibition [%]>
96

$$$$
>  <Compound>
NC(C(=O)NO)C(=O)NCc1ccccc1 (stereo unspecified)

>  <inhibition [%]>
10

$$$$
>  <Compound>
O=C(NO)C(Cc1ccccc1)C(=O)NCc1cccnc1 (stereo unspecified)

>  <inhibition [%]>
-6

$$$$
>  <Compound>
NC(C(=O)NO)C(=O)NCCc1ccccc1 (stereo unspecified)

>  <inhibition [%]>
-8

$$$$
>  <Compound>
CN(CCCCc1ccccc1)C(=O)C(N)C(=O)NO (stereo unspecified)

>  <inhibition [%]>
12

$$$$
>  <Compound>
CC(C)CC(C(=O)NO)C(=O)NCCc1ccccc1 (stereo unspecified)

>  <inhibition [%]>
74

$$$$
>  <Compound>
CC(C)CC(C(=O)NO)C(=O)N1CCN(C(c2ccccc2)c2ccccc2)CC1 (stereo unspecified)

>  <inhibition [%]>
-2

$$$$
>  <Compound>
NC(C(=O)NO)C(=O)NCc1ccc(C(F)(F)F)cc1 (stereo unspecified)

>  <inhibition [%]>
6

$$$$
>  <Compound>
O=C(NO)C(Cc1ccccc1)C(=O)N1CCC2(CC1)C(=O)NCN2c1ccccc1 (stereo unspecified)

>  <inhibition [%]>
40

$$$$
>  <Compound>
O=C(NO)C(Cc1cccc(Oc2ccccc2)c1)C(=O)N1CCN(Cc2ccc3c(c2)OCO3)CC1 (stereo unspecified)

>  <inhibition [%]>
97

$$$$

====

# Experimental protocol: Solubility at pH 7.4
# Type: physicochemical
# Assay setup: buffer
Reported property: solubility

>  <Compound>
O=C(NO)/C(=C\c1ccccc1)C(=O)NCc1ccc(F)cc1

>  <Reported property>
solubility

>  <Recorded measurement>
198 µM

$$$$
>  <Compound>
O=C(NO)C(Cc1ccccc1)C(=O)NCc1ccc(F)cc1 (configuration not stated)

>  <Reported property>
solubility

>  <Recorded measurement>
> 200 µM

$$$$

====

# Study system: Aminopeptidase N (Sus scrofa)
# Sequence (P15145 whole entry): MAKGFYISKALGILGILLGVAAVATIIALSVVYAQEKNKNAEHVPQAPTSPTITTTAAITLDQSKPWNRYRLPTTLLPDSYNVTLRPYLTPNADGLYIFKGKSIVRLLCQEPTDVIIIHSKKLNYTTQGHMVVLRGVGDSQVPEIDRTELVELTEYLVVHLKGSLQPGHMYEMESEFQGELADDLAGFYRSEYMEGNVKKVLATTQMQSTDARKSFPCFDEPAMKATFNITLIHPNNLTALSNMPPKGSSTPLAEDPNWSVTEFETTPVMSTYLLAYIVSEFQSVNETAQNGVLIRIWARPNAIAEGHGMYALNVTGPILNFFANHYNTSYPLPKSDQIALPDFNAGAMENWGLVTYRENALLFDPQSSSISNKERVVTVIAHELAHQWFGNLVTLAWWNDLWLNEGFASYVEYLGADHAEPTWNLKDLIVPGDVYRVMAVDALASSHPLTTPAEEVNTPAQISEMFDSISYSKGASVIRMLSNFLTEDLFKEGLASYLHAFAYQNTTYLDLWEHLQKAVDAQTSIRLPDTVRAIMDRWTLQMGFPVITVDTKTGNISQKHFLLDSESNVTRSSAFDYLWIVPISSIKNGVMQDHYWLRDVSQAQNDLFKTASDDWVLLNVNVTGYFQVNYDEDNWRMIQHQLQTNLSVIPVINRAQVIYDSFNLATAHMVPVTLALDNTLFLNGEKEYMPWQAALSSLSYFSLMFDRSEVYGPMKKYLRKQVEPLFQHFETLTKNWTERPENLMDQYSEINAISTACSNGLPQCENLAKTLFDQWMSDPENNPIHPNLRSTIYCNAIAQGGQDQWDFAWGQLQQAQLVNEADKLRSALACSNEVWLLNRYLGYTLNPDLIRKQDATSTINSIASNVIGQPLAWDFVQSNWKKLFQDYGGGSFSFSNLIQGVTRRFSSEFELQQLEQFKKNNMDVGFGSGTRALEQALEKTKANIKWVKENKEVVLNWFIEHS

>  <Compound>
O=C(NO)/C(=C\c1ccccc1)C(=O)NCCCCc1ccccc1

>  <Value unit>
µM

>  <Value modifier>
=

>  <IC50>
3.24

$$$$
>  <Compound>
O=C(NO)C(Cc1ccccc1)C(=O)NCc1ccc(F)cc1 (stereo not drawn)

>  <Value unit>
µM

>  <Value modifier>
=

>  <IC50>
3.62

$$$$
>  <Compound>
O=C(NO)/C(=C\c1ccccc1)C(=O)NCc1ccc(F)cc1

>  <Value unit>
µM

>  <Value modifier>
=

>  <IC50>
1.37

$$$$
>  <Compound>
O=C(NCc1ccc(F)cc1)c1cc2ccccc2n(O)c1=O

>  <Value unit>
µM

>  <Value modifier>
>

>  <IC50>
10

$$$$
>  <Compound>
O=C(NO)C(Cc1cccc(Oc2ccccc2)c1)C(=O)NCc1ccc(Cl)cc1 (stereo not drawn)

>  <Value unit>
µM

>  <Value modifier>
=

>  <IC50>
2.53

$$$$
>  <Compound>
Cc1ccccc1CNC(=O)C(Cc1ccccc1)C(=O)NO (stereo not drawn)

>  <Value unit>
µM

>  <Value modifier>
=

>  <IC50>
1.31

$$$$
>  <Compound>
O=C(NO)C(Cc1ccccc1)C(=O)NCCCCc1ccccc1 (stereo not drawn)

>  <Value unit>
µM

>  <Value modifier>
>

>  <IC50>
10

$$$$
>  <Compound>
O=C(NCCCCc1ccccc1)c1cc2ccccc2n(O)c1=O

>  <Value unit>
µM

>  <Value modifier>
>

>  <IC50>
10

$$$$

====

# Experimental protocol: Stability in Zucker FA/FA rat plasma at 37degC
# Format: ADME, organism-based
# Assay setup: read-out: Stability (converted)
// values below are reported half-life

>  <Molecule>
O=C(NO)C(Cc1ccccc1)C(=O)NCc1ccc(F)cc1 (stereo not drawn)

>  <Value unit>
h

>  <Value modifier>
=

>  <half-life>
0.75

$$$$
>  <Molecule>
O=C(NO)/C(=C\c1ccccc1)C(=O)NCc1ccc(F)cc1

>  <Value unit>
h

>  <Value modifier>
=

>  <half-life>
22

$$$$
>  <Molecule>
O=C(NCc1ccc(F)cc1)c1cc2ccccc2n(O)c1=O

>  <Value unit>
h

>  <Value modifier>
>

>  <half-life>
48

$$$$

====

# Study system: Aminopeptidase N (Sus scrofa) (UniProt P15145)
# Sequence (P15145 whole entry): as above
# Experimental protocol: Inhibition of pig kidney microsomal APN at 10 uM
This section presents compounds with their documented inhibition values.

>  <Compound>
O=C(CC(=O)N(CCc1ccccc1)Cc1ccccc1)NO

>  <Value unit>
%

>  <inhibition>
32

$$$$
>  <Compound>
CN(CCCCc1ccccc1)C(=O)C(Cc1cccc(Oc2ccccc2)c1)C(=O)NO (configuration not stated)

>  <Value unit>
%

>  <inhibition>
95

$$$$
>  <Compound>
O=C(CC(=O)NCCCc1ccccc1)NO

>  <Value unit>
%

>  <inhibition>
15

$$$$
>  <Compound>
CC(C)CC(C(=O)NO)C(=O)NCCc1ccccn1 (configuration not stated)

>  <Value unit>
%

>  <inhibition>
86

$$$$
>  <Compound>
NC(C(=O)NO)C(=O)NCCCc1ccccc1 (configuration not stated)

>  <Value unit>
%

>  <inhibition>
8

$$$$
>  <Compound>
CN(Cc1ccccc1)C(=O)CC(=O)NO

>  <Value unit>
%

>  <inhibition>
9

$$$$
>  <Compound>
O=C(CC(=O)N1CCN(Cc2ccc3c(c2)OCO3)CC1)NO

>  <Value unit>
%

>  <inhibition>
11

$$$$
>  <Compound>
O=C(NO)C(Cc1ccccc1)C(=O)NCCCc1ccccc1 (configuration not stated)

>  <Value unit>
%

>  <inhibition>
84

$$$$
>  <Compound>
CC(C)CC(C(=O)NO)C(=O)NCCc1ccccc1 (configuration not stated)

>  <Value unit>
%

>  <inhibition>
105

$$$$
>  <Compound>
NC(C(=O)NO)C(=O)NC1Cc2ccccc2C1 (configuration not stated)

>  <Value unit>
%

>  <inhibition>
36

$$$$
>  <Compound>
O=C(CC(=O)NCc1ccc(F)cc1)NO

>  <Value unit>
%

>  <inhibition>
16

$$$$
>  <Compound>
CC(C)CC(C(=O)NO)C(=O)NCc1cccc(-c2ccccc2)c1 (configuration not stated)

>  <Value unit>
%

>  <inhibition>
95

$$$$

====

# Study system: Aminopeptidase N (Sus scrofa)
# Experimental protocol: Inhibition of pig kidney microsomal APN at 10 uM
Kind request: treat 80% as inclusive, so inhibition at 80% or higher is yes (1), anything lower is no (0).

>  <Molecule>
NC(C(=O)NO)C(=O)NCCC(c1ccccc1)c1ccccc1 (stereo not given)

>  <Assigned class>
no (0)

$$$$
>  <Molecule>
O=C(NO)C(Cc1cccc(Oc2ccccc2)c1)C(=O)N[C@H]1CCN(Cc2ccccc2)C1 (stereo not given in full)

>  <Assigned class>
yes (1)

$$$$
>  <Molecule>
O=C(CC(=O)N1CCN(C(c2ccccc2)c2ccccc2)CC1)NO

>  <Assigned class>
no (0)

$$$$
>  <Molecule>
O=C(CC(=O)NC1Cc2ccccc2C1)NO

>  <Assigned class>
no (0)

$$$$
>  <Molecule>
O=C(NO)C(Cc1ccccc1)C(=O)N1CCC(Cc2ccccc2)CC1 (stereo not given)

>  <Assigned class>
no (0)

$$$$
>  <Molecule>
O=C(NO)C(Cc1cccc(Oc2ccccc2)c1)C(=O)N1CCC2(CC1)C(=O)NCN2c1ccccc1 (stereo not given)

>  <Assigned class>
no (0)

$$$$
>  <Molecule>
O=C(NO)C(Cc1ccccc1)C(=O)N1CCN(C(c2ccccc2)c2ccccc2)CC1 (stereo not given)

>  <Assigned class>
no (0)

$$$$
>  <Molecule>
CC(C)CC(C(=O)NO)C(=O)N1CCc2ccccc2C1 (stereo not given)

>  <Assigned class>
yes (1)

$$$$
>  <Molecule>
O=C(NO)C(Cc1cccc(Oc2ccccc2)c1)C(=O)NCCc1ccccn1 (stereo not given)

>  <Assigned class>
yes (1)

$$$$

Taken from ChEMBL document CHEMBL1142961.
